Target: Tyrosine-protein phosphatase non-receptor type 1 (Homo sapiens)
Sequence (P18031 whole entry): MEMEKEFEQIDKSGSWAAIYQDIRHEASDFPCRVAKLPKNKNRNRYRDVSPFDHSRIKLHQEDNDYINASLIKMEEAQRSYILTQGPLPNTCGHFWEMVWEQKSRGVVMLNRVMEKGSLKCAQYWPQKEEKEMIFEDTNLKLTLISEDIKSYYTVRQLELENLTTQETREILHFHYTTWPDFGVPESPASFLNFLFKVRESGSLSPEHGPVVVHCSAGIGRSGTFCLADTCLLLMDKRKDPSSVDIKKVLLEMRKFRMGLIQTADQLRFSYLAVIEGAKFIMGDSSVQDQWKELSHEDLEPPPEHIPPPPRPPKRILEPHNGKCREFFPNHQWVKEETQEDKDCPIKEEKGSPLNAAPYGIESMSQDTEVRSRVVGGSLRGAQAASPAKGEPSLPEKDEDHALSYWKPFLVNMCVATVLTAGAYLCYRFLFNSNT
Assay: Inhibition of human recombinant PTP1B using pNPP substrate at 37 degC measured after 30 mins
For each record, check the reported IC50: if it is below 10 µM write true, else write false.

Query: Just wondering, is IC50 of CCCCOc1cc(OC)c(/C=C2\SC(=O)NC2=O)cc1Br below 10 µM?
Result: true

Query: Just wondering, is IC50 of C=CCc1cc(/C=C2\SC(=O)N(C(C)C)C2=O)c(OC)cc1OC1CCCCO1 (configuration not stated) below 10 µM?
Result: false

Query: Just wondering, is IC50 of CCCCOc1cc(OC)c(/C=C2\SC(=O)N(C(C)C)C2=O)cc1Br below 10 µM?
Result: true

Query: Just wondering, is IC50 of C=CCc1cc(/C=C2\SC(=O)N(C(C)C)C2=O)c(OC)cc1O below 10 µM?
Result: true

Query: Just wondering, is IC50 of C=CCc1cc(/C=C2\SC(=O)N(Cc3ccccc3)C2=O)c(OC)cc1OC1CCCCO1 (configuration not stated) below 10 µM?
Result: false

Query: Just wondering, is IC50 of COc1cc(OCC=C(C)C)c(Br)cc1/C=C1\SC(=O)N(Cc2ccccc2)C1=O below 10 µM?
Result: false

Query: Just wondering, is IC50 of C=CCc1cc(/C=C2\SC(=O)N(CCCC)C2=O)c(OC)cc1O below 10 µM?
Result: true

Query: Just wondering, is IC50 of C=CCc1cc(/C=C2\SC(=O)N(Cc3ccccc3)C2=O)c(OC)cc1O below 10 µM?
Result: true

Query: Just wondering, is IC50 of C=CCc1cc(/C=C2\SC(=O)N(C)C2=O)c(OC)cc1OC1CCCCO1 (configuration not stated) below 10 µM?
Result: false

Query: Just wondering, is IC50 of CCCCOc1cc(OC)c(/C=C2\SC(=O)N(CCCC)C2=O)cc1Br below 10 µM?
Result: false

Query: Just wondering, is IC50 of C=CCc1cc(/C=C2\SC(=O)N(CC=C)C2=O)c(OC)cc1OC1CCCCO1 (configuration not stated) below 10 µM?
Result: false

Query: Just wondering, is IC50 of COc1cc(OCC=C(C)C)c(Br)cc1/C=C1\SC(=O)N(C)C1=O below 10 µM?
Result: true

Query: Just wondering, is IC50 of COc1cc(OCc2ccccc2)c(Br)cc1/C=C1\SC(=O)N(C)C1=O below 10 µM?
Result: true

Query: Just wondering, is IC50 of COc1cc(OCC=C(C)C)c(Br)cc1/C=C1\SC(=O)N(C(C)C)C1=O below 10 µM?
Result: true

Query: Just wondering, is IC50 of COc1cc(O)ccc1/C=C1\SC(=O)NC1=O below 10 µM?
Result: false

Query: Just wondering, is IC50 of C=CCc1cc(/C=C2\SC(=O)N(C)C2=O)c(OC)cc1O below 10 µM?
Result: false

Query: Just wondering, is IC50 of C=CCc1cc(/C=C2\SC(=O)N(CCCC)C2=O)c(OC)cc1OC1CCCCO1 (configuration not stated) below 10 µM?
Result: false

Query: Just wondering, is IC50 of C=CCc1cc(/C=C2\SC(=O)NC2=O)c(OC)cc1OC1CCCCO1 (configuration not stated) below 10 µM?
Result: false

Query: Just wondering, is IC50 of C=CCOc1cc(OC)c(/C=C2\SC(=O)NC2=O)cc1Br below 10 µM?
Result: true

Query: Just wondering, is IC50 of C=CCc1cc(/C=C2\SC(=O)N(CC=C(C)C)C2=O)c(OC)cc1O below 10 µM?
Result: false

Query: Just wondering, is IC50 of COc1cc(OCc2ccccc2)c(Br)cc1/C=C1\SC(=O)NC1=O below 10 µM?
Result: true

Query: Just wondering, is IC50 of CCCCN1C(=O)S/C(=C\c2cc(Br)c(OCC=C(C)C)cc2OC)C1=O below 10 µM?
Result: false
